ASSAY SYSTEM: CYP11A1 (Homo sapiens, UniProt P05108)
Construct: measuring the cellular production of pregnenolone (P) catalyzed by CYP11A1
Sequence (P05108 40-521): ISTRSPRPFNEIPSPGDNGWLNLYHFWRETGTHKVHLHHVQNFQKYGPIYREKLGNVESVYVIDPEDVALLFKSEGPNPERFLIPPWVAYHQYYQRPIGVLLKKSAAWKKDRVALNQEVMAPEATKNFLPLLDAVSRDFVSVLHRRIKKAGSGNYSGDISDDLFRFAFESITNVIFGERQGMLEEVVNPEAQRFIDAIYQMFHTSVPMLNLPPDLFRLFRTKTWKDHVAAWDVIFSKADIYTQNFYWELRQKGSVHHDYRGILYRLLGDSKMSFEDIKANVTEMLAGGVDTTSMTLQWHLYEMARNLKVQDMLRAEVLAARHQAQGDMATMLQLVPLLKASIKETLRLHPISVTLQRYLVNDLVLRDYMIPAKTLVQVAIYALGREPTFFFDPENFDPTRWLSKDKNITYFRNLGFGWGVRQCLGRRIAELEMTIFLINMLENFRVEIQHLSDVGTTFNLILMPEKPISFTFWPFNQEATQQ
TEST NAME: H295R Steroid Biosynthesis Inhibition Assay - inhibition of pregnenolone (P) production catalyzed by CYP11A1 in NCI-H295R cells
TEST SETTINGS: 48 h, LC-MS/MS, read-out: Inh. of P IC50
Procedure: Steroid Biosynthesis Inhibition by test compounds in NCI-H295R cells (ATCC) was studied by measuring the cellular production of pregnenolone (P) catalyzed by CYP11A1 and the downstream steroid, testosterone (T). […] The half-maximal inhibitory concentration (IC50) for steroid biosynthesis inhibition was determined by curve-fitting with the 4-variable inhibitory dose response equation using GraphPad Prism software. […]
pIC50: −log10 of the molar value.
Assign pIC50 to each entry below.

# return recorded pIC50 for entry O=S1(=O)CCC(c2cnc3cc(CN4Cc5ccccc5C4)ccc3n2)CC1 ≤ 7.00

# return recorded pIC50 for entry Cc1nc(C2CCN(S(C)(=O)=O)CC2)nc2ccc(CN3Cc4ccccc4C3)cc12 ≥ 7.40

# return recorded pIC50 for entry CS(=O)(=O)N1CCC(n2cc3ccc(CN4Cc5ccccc5C4)cc3n2)CC1 ≥ 7.40

# return recorded pIC50 for entry O=C(c1ncccn1)N1CCC(c2cnc3cc(CN4Cc5ccccc5C4)ccc3n2)CC1 7.00 to 7.40

====

ASSAY SYSTEM: CYP11A1 (Homo sapiens, UniProt P05108)
Construct: measuring the cellular production of pregnenolone (P) catalyzed by CYP11A1
Sequence (P05108 40-521): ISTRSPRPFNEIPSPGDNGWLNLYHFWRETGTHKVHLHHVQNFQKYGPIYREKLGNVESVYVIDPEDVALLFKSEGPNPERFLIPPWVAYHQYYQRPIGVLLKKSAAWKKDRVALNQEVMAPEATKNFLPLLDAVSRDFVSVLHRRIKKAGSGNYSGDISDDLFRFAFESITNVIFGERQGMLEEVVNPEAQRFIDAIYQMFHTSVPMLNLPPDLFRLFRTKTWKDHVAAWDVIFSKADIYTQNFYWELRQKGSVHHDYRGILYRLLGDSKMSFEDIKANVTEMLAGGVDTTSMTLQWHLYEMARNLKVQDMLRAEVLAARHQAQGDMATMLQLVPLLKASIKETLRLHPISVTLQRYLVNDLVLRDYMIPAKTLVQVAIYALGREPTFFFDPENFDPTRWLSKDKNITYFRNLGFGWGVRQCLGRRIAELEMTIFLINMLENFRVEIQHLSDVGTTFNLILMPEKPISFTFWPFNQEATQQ
TEST NAME: H295R Steroid Biosynthesis Inhibition Assay - inhibition of pregnenolone (P) production catalyzed by CYP11A1 in NCI-H295R cells
TEST SETTINGS: 48 h, LC-MS/MS, read-out: Inh. of P IC50
Assign IC50 to each entry below.

# return recorded IC50 for entry CCCCS(=O)(=O)N1CCC(c2cnc3cc(CN4Cc5ccccc5C4)ccc3n2)CC1 [Compound 93] ≤ 0.04 µM

# return recorded IC50 for entry O=c1cc(CN2Cc3ccccc3C2)oc2cc(C3CC4(CC(O)C4)C3)oc12 (stereo not drawn) [Compound 24] ≤ 0.04 µM

# return recorded IC50 for entry CP(C)(=O)c1ccc(-c2cc3oc(CN4Cc5ccccc5C4)cc(=O)c3o2)cc1 [Compound 50] ≥ 0.1 µM

# return recorded IC50 for entry O=C(C1CC1)N1CCC(c2cnc3cc(CN4Cc5ccccc5C4)ccc3n2)CC1 [Compound 102] 0.04 to 0.1 µM

# return recorded IC50 for entry Cn1ccnc1C(=O)N1CCC(c2cnc3cc(CN4Cc5ccccc5C4)ccc3n2)CC1 [Compound 108] 0.04 to 0.1 µM

# return recorded IC50 for entry COc1nc(C2CCN(S(C)(=O)=O)CC2)nc2ccc(CN3Cc4ccccc4C3)cc12 [Compound 85] ≤ 0.04 µM

# return recorded IC50 for entry CS(=O)(=O)N1CCC(c2cc3oc(CN4Cc5ccc(C(F)(F)F)cc5C4)cc(=O)c3o2)CC1 [Compound 20] ≤ 0.04 µM

# return recorded IC50 for entry CS(=O)(=O)N1CCC(c2cc3oc(CN4CCc5ccccc5C4)cc(=O)c3o2)CC1 [Compound 21] ≥ 0.1 µM

# return recorded IC50 for entry O=C(c1ccccc1)N1CCC(c2cnc3cc(CN4Cc5ccccc5C4)ccc3n2)CC1 [Compound 104] 0.04 to 0.1 µM

# return recorded IC50 for entry CS(=O)(=O)c1ccc(-c2cc3oc(CN4Cc5ccccc5C4)cc(=O)c3o2)cc1 [Compound 49] ≤ 0.04 µM

# return recorded IC50 for entry CS(=O)(=O)N1CCC(c2ccc3cc(CN4Cc5ccccc5C4)cnc3n2)CC1 [Compound 78] ≤ 0.04 µM

# return recorded IC50 for entry O=c1cc(CN2Cc3ccccc3C2)oc2cc(C3CC4(COC4)C3)oc12 [Compound 25] ≤ 0.04 µM

# return recorded IC50 for entry CC(Oc1ccc(CN2Cc3ccccc3C2)c2cccnc12)C1CCN(S(C)(=O)=O)CC1 (stereo not drawn) [Compound 11] ≤ 0.04 µM

# return recorded IC50 for entry O=c1cc(CN2Cc3ccccc3C2)oc2cc([C@H]3CC[C@@]4(O)CC4C3)oc12 (stereo partly drawn) [Compound 40] ≤ 0.04 µM

# return recorded IC50 for entry N#C[C@H]1CC[C@H](c2cc3oc(CN4Cc5ccccc5C4)cc(=O)c3o2)CC1 [Compound 48] ≤ 0.04 µM

# return recorded IC50 for entry CC(C)(C)OC(=O)N1CCC(c2cnc3cc(CN4Cc5ccccc5C4)ccc3n2)CC1 [Compound 113] 0.04 to 0.1 µM

# return recorded IC50 for entry CS(=O)(=O)N1CCC(c2ccc3cc(CN4Cc5ccccc5C4)ccc3c2)CC1 [Compound 66] ≤ 0.04 µM

# return recorded IC50 for entry CS(=O)(=O)N1C[C@@H]2[C@H](C1)[C@H]2c1cnc2cc(CN3Cc4ccccc4C3)ccc2n1 [Compound 86] ≤ 0.04 µM

# return recorded IC50 for entry O=c1cc(CN2Cc3ccccc3C2)oc2cc(C3C4CC(O)CC43)oc12 (stereo not drawn) [Compound 39] ≤ 0.04 µM

# return recorded IC50 for entry O=c1cc(CN2Cc3ccccc3C2)oc2cc([C@@H]3CC[C@@H](O)[C@@H](F)C3)oc12 [Compound 30] ≤ 0.04 µM

# return recorded IC50 for entry O=C(NC1COC1)N1CCC(c2cnc3cc(CN4Cc5ccccc5C4)ccc3n2)CC1 [Compound 118] ≥ 0.1 µM

# return recorded IC50 for entry CS(=O)(=O)N1C[C@@H]2[C@H](C1)[C@H]2c1ccc2cc(CN3Cc4ccccc4C3)ccc2n1 [Compound 56] ≤ 0.04 µM

# return recorded IC50 for entry CS(=O)(=O)N1CCC(c2cc(=O)c3nc(CN4Cc5ccccc5C4)ccc3o2)CC1 [Compound 61] ≥ 0.1 µM

# return recorded IC50 for entry COC(=O)N1CCC(c2cnc3cc(CN4Cc5ccccc5C4)ccc3n2)CC1 [Compound 110] ≤ 0.04 µM

# return recorded IC50 for entry O=C(c1ncc[nH]1)N1CCC(c2cnc3cc(CN4Cc5ccccc5C4)ccc3n2)CC1 [Compound 107] 0.04 to 0.1 µM

# return recorded IC50 for entry CS(=O)(=O)N1CCC(c2cnc3cc(CN4Cc5ccccc5C4)cnc3c2)CC1 [Compound 80] ≤ 0.04 µM

# return recorded IC50 for entry CS(=O)(=O)N[C@H]1CC[C@H](c2cc3oc(CN4Cc5ccccc5C4)cc(=O)c3o2)CC1 [Compound 44] ≤ 0.04 µM

# return recorded IC50 for entry CS(=O)(=O)N1CCC(c2cc3oc(CN4Cc5ccc(F)cc5C4)cc(=O)c3o2)CC1 [Compound 17] ≤ 0.04 µM

# return recorded IC50 for entry CS(=O)(=O)N1CCC(N2CCc3cc(CN4Cc5ccccc5C4)ccc3C2=O)CC1 [Compound 64] ≤ 0.04 µM

# return recorded IC50 for entry O=C(C(F)F)N1CCC(c2cnc3cc(CN4Cc5ccccc5C4)ccc3n2)CC1 [Compound 103] 0.04 to 0.1 µM

# return recorded IC50 for entry CS(=O)(=O)N1CC=C(c2coc3cc(CN4Cc5ccccc5C4)ccc3c2=O)CC1 [Compound 65] ≤ 0.04 µM

# return recorded IC50 for entry Cc1ccc2c(c1)CN(Cc1cc(=O)c3oc(C4CCN(S(C)(=O)=O)CC4)cc3o1)C2 [Compound 18] ≤ 0.04 µM

# return recorded IC50 for entry CS(=O)(=O)N1CCC(c2cc(Cl)c3cc(CN4Cc5ccccc5C4)ccc3n2)CC1 [Compound 77] ≤ 0.04 µM
